# Subject of test: [MCL-1]-[compound of formula (I)]—[CRBN/DDB1] (Homo sapiens, UniProt Q07820+Q96SW2)
# Sequence (Q07820 whole entry): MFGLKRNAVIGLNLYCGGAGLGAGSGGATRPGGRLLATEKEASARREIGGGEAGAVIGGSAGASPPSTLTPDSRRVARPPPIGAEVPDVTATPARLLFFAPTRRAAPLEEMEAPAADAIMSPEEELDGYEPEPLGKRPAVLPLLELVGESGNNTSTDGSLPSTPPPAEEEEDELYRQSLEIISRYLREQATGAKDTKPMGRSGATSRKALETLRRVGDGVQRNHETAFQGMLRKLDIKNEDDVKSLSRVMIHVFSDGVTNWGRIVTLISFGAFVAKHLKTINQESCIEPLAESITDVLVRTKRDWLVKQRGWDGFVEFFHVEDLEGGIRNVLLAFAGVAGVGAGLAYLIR
# Sequence (Q96SW2 whole entry): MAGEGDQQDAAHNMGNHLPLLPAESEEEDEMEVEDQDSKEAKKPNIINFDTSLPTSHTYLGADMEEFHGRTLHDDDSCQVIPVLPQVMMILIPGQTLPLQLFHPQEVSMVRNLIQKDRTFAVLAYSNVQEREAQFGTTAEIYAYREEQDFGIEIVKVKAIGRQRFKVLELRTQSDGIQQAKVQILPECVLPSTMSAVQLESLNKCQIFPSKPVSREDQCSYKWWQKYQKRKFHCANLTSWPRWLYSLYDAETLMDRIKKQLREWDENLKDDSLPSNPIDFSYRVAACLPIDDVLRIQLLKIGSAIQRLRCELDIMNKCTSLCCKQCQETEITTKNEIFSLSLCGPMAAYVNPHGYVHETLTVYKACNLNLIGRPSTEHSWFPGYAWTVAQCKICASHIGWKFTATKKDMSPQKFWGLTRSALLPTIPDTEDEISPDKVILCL
# Sequence (Q16531 whole entry partner): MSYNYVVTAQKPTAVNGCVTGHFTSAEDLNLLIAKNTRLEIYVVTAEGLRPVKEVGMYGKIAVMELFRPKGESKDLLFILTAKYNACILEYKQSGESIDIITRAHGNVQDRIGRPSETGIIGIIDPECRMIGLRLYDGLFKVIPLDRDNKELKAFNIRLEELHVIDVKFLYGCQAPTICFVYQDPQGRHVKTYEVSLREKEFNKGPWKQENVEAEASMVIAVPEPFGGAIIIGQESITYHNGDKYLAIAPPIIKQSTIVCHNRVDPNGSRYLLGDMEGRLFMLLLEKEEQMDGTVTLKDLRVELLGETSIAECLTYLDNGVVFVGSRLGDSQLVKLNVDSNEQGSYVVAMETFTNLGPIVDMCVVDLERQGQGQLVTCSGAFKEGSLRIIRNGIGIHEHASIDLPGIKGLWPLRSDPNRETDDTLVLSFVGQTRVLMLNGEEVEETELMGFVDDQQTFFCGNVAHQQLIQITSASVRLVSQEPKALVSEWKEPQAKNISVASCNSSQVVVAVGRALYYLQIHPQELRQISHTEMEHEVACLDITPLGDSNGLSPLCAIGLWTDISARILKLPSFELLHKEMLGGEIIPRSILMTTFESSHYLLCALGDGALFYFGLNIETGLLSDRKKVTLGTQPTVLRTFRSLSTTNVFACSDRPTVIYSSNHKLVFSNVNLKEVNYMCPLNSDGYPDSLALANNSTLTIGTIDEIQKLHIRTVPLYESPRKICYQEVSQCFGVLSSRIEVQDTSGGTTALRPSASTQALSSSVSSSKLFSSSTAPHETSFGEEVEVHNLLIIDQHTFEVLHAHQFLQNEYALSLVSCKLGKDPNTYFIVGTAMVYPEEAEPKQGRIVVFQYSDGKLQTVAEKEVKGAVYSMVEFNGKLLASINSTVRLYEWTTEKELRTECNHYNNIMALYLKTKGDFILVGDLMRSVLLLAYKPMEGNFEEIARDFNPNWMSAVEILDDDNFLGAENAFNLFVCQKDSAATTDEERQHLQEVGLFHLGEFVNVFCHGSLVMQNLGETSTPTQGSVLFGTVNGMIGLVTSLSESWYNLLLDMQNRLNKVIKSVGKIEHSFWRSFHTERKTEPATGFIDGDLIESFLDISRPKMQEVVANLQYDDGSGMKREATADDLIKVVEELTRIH
# Assay name: HTRF ternary complex formation assay
# Type: binding
# Experimental context: hMcl-1 and CRBN, 180 min at 25° C.; read-out: HTRF ternary complex Average pEC50 by molecule (converted)
Measurement label: EC50

A selection of reference data follows.
For the compound Cc1nn(C)c(C)c1-c1c(Cl)ccc2c(CCCOc3cccc4cc(F)ccc34)c(C(=O)O)n(CCN3CCN(C(=O)COc4cc(N)cc5c4CN(C4CCC(=O)NC4=O)C5=O)CC3)c12 (stereo not drawn) , what EC50 is on record?
< 316 nM

Do the same for Cc1nc2c(C(=O)NC3CCC(=O)NC3=O)cc(OCCC(=O)N3CCN(CCn4c(C(=O)O)c(CCCOc5cccc6cc(F)ccc56)c5ccc(Cl)c(-c6c(C)nn(C)c6C)c54)CC3)cc2[nH]1 (stereo not drawn) please
< 100 nM

Next:
For the compound Cc1nc2cc(C(=O)NCC(=O)N3CCN(CCn4c(C(=O)O)c(CCCOc5cccc6cc(F)ccc56)c5ccc(Cl)c(-c6c(C)nn(C)c6C)c54)CC3)ccc2cc1C1CCC(=O)NC1=O (stereo not drawn) , what EC50 is on record?
< 100 nM
